% conversion to parent compound by purified CD26, 24 h: recorded values
Target: purified CD26 (Homo sapiens)
Construct: made in house
Assay: Conversion of peptide prodrugs to parent compound by purified CD26 (HPLC)
Format: biochemical
Conditions: Table 2; purified CD26 1.5 mUnits; 24 h
recordedEndpoint: % conversion to parent compound by purified CD26, 24 h (%)

compound	targetDesc	uom	readoutValue
Cc1cn(C2OC(CO[Si](C)(C)C(C)(C)C)C3(OS(=O)(=O)C=C3N)C2O[Si](C)(C)C(C)(C)C)c(=O)n(CCCNC(=O)C2CCCN2C(=O)C(CC(=O)O)NC(=O)C2CCCN2C(=O)C(N)CCCCN)c1=O (stereo not drawn)	purified CD26 (Homo sapiens)	%	26
Cc1cn(C2OC(CO[Si](C)(C)C(C)(C)C)C3(OS(=O)(=O)C=C3N)C2O[Si](C)(C)C(C)(C)C)c(=O)n(CCCNC(=O)[C@@H]2CCCN2C(=O)[C@@H](N)CCCCN)c1=O (stereo partly drawn)	purified CD26 (Homo sapiens)	%	99
Cc1cn(C2OC(CO[Si](C)(C)C(C)(C)C)C3(OS(=O)(=O)C=C3N)C2O[Si](C)(C)C(C)(C)C)c(=O)n(CCCNC(=O)[C@@H]2CCCN2C(=O)[C@@H](N)CC(=O)O)c1=O (stereo partly drawn)	purified CD26 (Homo sapiens)	%	30
Cc1cn(C2OC(CO[Si](C)(C)C(C)(C)C)C3(OS(=O)(=O)C=C3N)C2O[Si](C)(C)C(C)(C)C)c(=O)n(CCCNC(=O)C2CCCN2C(=O)C(NC(=O)C2CCCN2C(=O)C(NC(=O)OCc2ccccc2)C(C)C)C(C)C)c1=O (stereo not drawn)	purified CD26 (Homo sapiens)	%	0
Cc1cn(C2OC(CO[Si](C)(C)C(C)(C)C)C3(OS(=O)(=O)C=C3N)C2O[Si](C)(C)C(C)(C)C)c(=O)n(CCCNC(=O)C2CCCN2C(=O)C(NC(=O)C(C)NC(=O)C(N)C(C)C)C(C)C)c1=O (stereo not drawn)	purified CD26 (Homo sapiens)	%	70
Cc1cn(C2OC(CO[Si](C)(C)C(C)(C)C)C3(OS(=O)(=O)C=C3N)C2O[Si](C)(C)C(C)(C)C)c(=O)n(CCCNC(=O)[C@H](C)NC(=O)[C@@H](N)C(C)C)c1=O (stereo partly drawn)	purified CD26 (Homo sapiens)	%	35

----------
Target: purified CD26 (Homo sapiens, UniProt P27487)
Construct: made in house
Sequence (P27487 whole entry): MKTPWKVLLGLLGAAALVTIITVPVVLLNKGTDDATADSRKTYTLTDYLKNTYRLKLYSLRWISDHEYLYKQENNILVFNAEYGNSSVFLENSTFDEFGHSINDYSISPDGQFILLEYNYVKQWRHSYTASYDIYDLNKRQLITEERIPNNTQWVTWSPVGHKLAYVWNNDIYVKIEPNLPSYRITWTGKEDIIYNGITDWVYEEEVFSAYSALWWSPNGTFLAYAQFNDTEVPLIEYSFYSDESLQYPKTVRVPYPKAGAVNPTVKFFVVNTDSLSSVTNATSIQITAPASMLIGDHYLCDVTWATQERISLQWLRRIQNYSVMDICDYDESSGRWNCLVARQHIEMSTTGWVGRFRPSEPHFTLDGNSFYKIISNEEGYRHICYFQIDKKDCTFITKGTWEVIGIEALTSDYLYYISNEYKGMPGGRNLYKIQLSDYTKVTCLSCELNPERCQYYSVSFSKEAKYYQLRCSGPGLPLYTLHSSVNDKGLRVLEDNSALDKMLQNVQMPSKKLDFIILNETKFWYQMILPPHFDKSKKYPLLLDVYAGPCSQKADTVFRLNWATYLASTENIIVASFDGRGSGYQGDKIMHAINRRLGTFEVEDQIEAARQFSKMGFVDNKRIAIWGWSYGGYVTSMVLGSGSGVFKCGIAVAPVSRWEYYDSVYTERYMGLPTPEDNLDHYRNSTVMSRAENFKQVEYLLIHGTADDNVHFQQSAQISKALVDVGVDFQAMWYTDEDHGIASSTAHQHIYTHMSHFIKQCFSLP
Experiment: Conversion of peptide prodrugs to parent compound by purified CD26 (HPLC)
Format: biochemical
Conditions: Table 2; purified CD26 1.5 mUnits; 1 h
I would appreciate it if you labelled entries Fulfilled when % conversion to parent compound by purified CD26, 1 h is 2% or higher, otherwise Not fulfilled.

compound	labelClass
Cc1cn(C2OC(CO[Si](C)(C)C(C)(C)C)C3(OS(=O)(=O)C=C3N)C2O[Si](C)(C)C(C)(C)C)c(=O)n(CCCNC(=O)C2CCCN2C(=O)C(NC(=O)C2CCCN2C(=O)C(N)C(C)C)C(C)C)c1=O (stereo not drawn) [CAM-467, H-Val-Pro-Val-Pro-NAP-TSAO]	Fulfilled
Cc1cn(C2OC(CO[Si](C)(C)C(C)(C)C)C3(OS(=O)(=O)C=C3N)C2O[Si](C)(C)C(C)(C)C)c(=O)n(CCCNC(=O)C2CCCN2C(=O)C(NC(=O)C(C)NC(=O)C(N)C(C)C)C(C)C)c1=O (stereo not drawn) [CAM-473, H-Val-Ala-Val-Pro-NAP-TSAO]	Fulfilled
Cc1cn(C2OC(CO[Si](C)(C)C(C)(C)C)C3(OS(=O)(=O)C=C3N)C2O[Si](C)(C)C(C)(C)C)c(=O)n(CCCNC(=O)C2CCCN2C(=O)C(CC(=O)O)NC(=O)C2CCCN2C(=O)C(N)CCCCN)c1=O (stereo not drawn) [CAM-477, H-Lys-Pro-Asp-Pro-NAP-TSAO]	Fulfilled
Cc1cn(C2OC(CO[Si](C)(C)C(C)(C)C)C3(OS(=O)(=O)C=C3N)C2O[Si](C)(C)C(C)(C)C)c(=O)n(CCCNC(=O)[C@@H]2CCCN2C(=O)[C@@H](N)C(C)C)c1=O (stereo partly drawn) [CAM-405, H-Val-Pro-NAP-TSAO]	Fulfilled
Cc1cn(C2OC(CO[Si](C)(C)C(C)(C)C)C3(OS(=O)(=O)C=C3N)C2O[Si](C)(C)C(C)(C)C)c(=O)n(CCCNC(=O)[C@H](C)NC(=O)[C@@H](N)C(C)C)c1=O (stereo partly drawn) [CAM-424, H-Val-Ala-NAP-TSAO]	Not fulfilled
Cc1cn(C2OC(CO[Si](C)(C)C(C)(C)C)C3(OS(=O)(=O)C=C3N)C2O[Si](C)(C)C(C)(C)C)c(=O)n(CCCNC(=O)C2CCCN2C(=O)C(NC(=O)C2CCCN2C(=O)C(NC(=O)OCc2ccccc2)C(C)C)C(C)C)c1=O (stereo not drawn) [CAM-466, Z-Val-Pro-Val-Pro-NAP-TSAO]	Not fulfilled

----------
Target: purified CD26 (Homo sapiens)
Construct: made in house
Experiment: Conversion of peptide prodrugs to parent compound by purified CD26 (HPLC)
Format: biochemical
Conditions: Table 2; purified CD26 1.5 mUnits; 24 h
recordedEndpoint: % conversion to parent compound by purified CD26, 24 h (%)

molecule	readoutValue
Cc1cn(C2OC(CO[Si](C)(C)C(C)(C)C)C3(OS(=O)(=O)C=C3N)C2O[Si](C)(C)C(C)(C)C)c(=O)n(CCCNC(=O)[C@@H]2CCCN2C(=O)[C@@H](N)C(C)C)c1=O (some centres unmarked)	61
Cc1cn(C2OC(CO[Si](C)(C)C(C)(C)C)C3(OS(=O)(=O)C=C3N)C2O[Si](C)(C)C(C)(C)C)c(=O)n(CCCNC(=O)C2CCCN2C(=O)C(NC(=O)C2CCCN2C(=O)C(N)C(C)C)C(C)C)c1=O (centres unmarked)	88

----------
Conversion % to parent compound by purified CD26, 24 h: recorded values
Target: purified CD26 (Homo sapiens)
Construct: made in house
Experiment: Conversion of peptide prodrugs to parent compound by purified CD26 (HPLC)
Assay type: biochemical
Conditions: Table 1; purified CD26 1.5 mUnits; 24 h
recordedEndpoint: Conversion % to parent compound by purified CD26, 24 h (%)

compound	readoutValue
Cc1cn(C2OC(CO[Si](C)(C)C(C)(C)C)C3(OS(=O)(=O)C=C3N)C2O[Si](C)(C)C(C)(C)C)c(=O)n(CCCNC(=O)[C@@H](NC(=O)OCc2ccccc2)C(C)C)c1=O (some centres unmarked)	0
Cc1cn(C2OC(CO[Si](C)(C)C(C)(C)C)C3(OS(=O)(=O)C=C3N)C2O[Si](C)(C)C(C)(C)C)c(=O)n(CCCNC(=O)[C@@H]2CCCN2C(=O)[C@@H](N)Cc2ccc(O)cc2)c1=O (some centres unmarked)	79

----------
Conversion % to parent compound by purified CD26, 24 h: recorded values
Target: purified CD26 (Homo sapiens)
Construct: made in house
Assay: Conversion of peptide prodrugs to parent compound by purified CD26 (HPLC)
Type: biochemical
Details: Table 1; purified CD26 1.5 mUnits; 24 h
recordedEndpoint: Conversion % to parent compound by purified CD26, 24 h (%)

compound	targetDesc	readoutValue
Cc1cn(C2OC(CO[Si](C)(C)C(C)(C)C)C3(OS(=O)(=O)C=C3N)C2O[Si](C)(C)C(C)(C)C)c(=O)n(CCCNC(=O)[C@@H]2CCCN2C(=O)[C@@H](N)CCCCN)c1=O (some centres unmarked)	purified CD26 (Homo sapiens)	99
Cc1cn(C2OC(CO[Si](C)(C)C(C)(C)C)C3(OS(=O)(=O)C=C3N)C2O[Si](C)(C)C(C)(C)C)c(=O)n(CCCNC(=O)CNC(=O)[C@@H](N)C(C)C)c1=O (some centres unmarked)	purified CD26 (Homo sapiens)	0

----------
Target: purified CD26 (Homo sapiens)
Construct: made in house
Assay: Conversion of peptide prodrugs to parent compound by purified CD26 (HPLC)
Assay type: biochemical
Details: Table 2; purified CD26 1.5 mUnits; 4 h
recordedEndpoint: % conversion to parent compound by purified CD26, 4 h (%)

molecule	targetDesc	readoutValue
Cc1cn(C2OC(CO[Si](C)(C)C(C)(C)C)C3(OS(=O)(=O)C=C3N)C2O[Si](C)(C)C(C)(C)C)c(=O)n(CCCNC(=O)[C@@H]2CCCN2C(=O)[C@@H](N)C(C)C)c1=O (some centres unmarked)	purified CD26 (Homo sapiens)	62
Cc1cn(C2OC(CO[Si](C)(C)C(C)(C)C)C3(OS(=O)(=O)C=C3N)C2O[Si](C)(C)C(C)(C)C)c(=O)n(CCCNC(=O)C2CCCN2C(=O)C(NC(=O)C2CCCN2C(=O)C(N)C(C)C)C(C)C)c1=O (centres unmarked)	purified CD26 (Homo sapiens)	86
Cc1cn(C2OC(CO[Si](C)(C)C(C)(C)C)C3(OS(=O)(=O)C=C3N)C2O[Si](C)(C)C(C)(C)C)c(=O)n(CCCNC(=O)[C@H](C)NC(=O)[C@@H](N)C(C)C)c1=O (some centres unmarked)	purified CD26 (Homo sapiens)	6.5
Cc1cn(C2OC(CO[Si](C)(C)C(C)(C)C)C3(OS(=O)(=O)C=C3N)C2O[Si](C)(C)C(C)(C)C)c(=O)n(CCCNC(=O)C2CCCN2C(=O)C(CC(=O)O)NC(=O)C2CCCN2C(=O)C(N)CCCCN)c1=O (centres unmarked)	purified CD26 (Homo sapiens)	6.0
Cc1cn(C2OC(CO[Si](C)(C)C(C)(C)C)C3(OS(=O)(=O)C=C3N)C2O[Si](C)(C)C(C)(C)C)c(=O)n(CCCNC(=O)C2CCCN2C(=O)C(NC(=O)C2CCCN2C(=O)C(NC(=O)OCc2ccccc2)C(C)C)C(C)C)c1=O (centres unmarked)	purified CD26 (Homo sapiens)	0
Cc1cn(C2OC(CO[Si](C)(C)C(C)(C)C)C3(OS(=O)(=O)C=C3N)C2O[Si](C)(C)C(C)(C)C)c(=O)n(CCCNC(=O)[C@@H]2CCCN2C(=O)[C@@H](N)CCCCN)c1=O (some centres unmarked)	purified CD26 (Homo sapiens)	85
Cc1cn(C2OC(CO[Si](C)(C)C(C)(C)C)C3(OS(=O)(=O)C=C3N)C2O[Si](C)(C)C(C)(C)C)c(=O)n(CCCNC(=O)C2CCCN2C(=O)C(NC(=O)C(C)NC(=O)C(N)C(C)C)C(C)C)c1=O (centres unmarked)	purified CD26 (Homo sapiens)	54
Cc1cn(C2OC(CO[Si](C)(C)C(C)(C)C)C3(OS(=O)(=O)C=C3N)C2O[Si](C)(C)C(C)(C)C)c(=O)n(CCCNC(=O)[C@@H]2CCCN2C(=O)[C@@H](N)CC(=O)O)c1=O (some centres unmarked)	purified CD26 (Homo sapiens)	7.9
